log10 IC50 data for Poly [ADP-ribose] polymerase 1 (Homo sapiens, UniProt P09874) follow.
# values: log10(IC50), units nM

Field: example entries. Status: answers known.
O=C(c1cc(Cc2c[nH]c(=O)c3cc(Cl)c(Cl)n23)ccc1F)N1CCN(c2cc3ccccc3cn2)CC1	0.26
O=C(c1cc(Cc2c[nH]c(=O)c3cc(Cl)c(Cl)n23)ccc1F)N1CCN(c2ccccc2F)CC1	1.38
O=C(c1cc(Cc2c[nH]c(=O)c3c(Cl)c(Cl)cn23)ccc1F)N1CCCNCC1	0.20
CCC(=O)N1CCN(C(=O)c2cc(Cc3c[nH]c(=O)c4cc(Cl)c(Cl)n34)ccc2F)CC1	0.51

For every listed record, write down its log10 IC50.
1. CNC1CCN(C(=O)c2cc(Cc3c[nH]c(=O)c4cc(Cl)c(Cl)n34)ccc2F)CC1
2. O=C(c1cc(Cc2c[nH]c(=O)c3cc(Cl)c(Cl)n23)ccc1F)N1CCC(N2CCC2)CC1

0.36
0.00
